# experiment.summary: Rat clearance and bioavailability (iv and oral dosing)
# Format: in vivo
# test.parameters: male, Sprague-Dawley, plasma, oral 5 mg/kg, cassette dosing of 4 compounds
measured.attribute: bioavailability (%)
State just the number; it will be interpreted in %.

Look over these answered cases.
Supply bioavailability value. Item: CN1CCN(c2ncc(Cl)c(N3CC(C(=O)N(C)C(C)(C)c4cnc5ccccn45)C3)n2)CC1
65

Supply bioavailability value. Item: C[C@H]1CN(C)CCN1c1ncc(Cl)c(N2CC(C(=O)N(C)C(C)(C)c3cnc4ccccn34)C2)n1
37

Supply bioavailability value. Item: C[C@H]1CN(c2ncc(Cl)c(N3CCC(C(=O)NC(C)(C)c4cnc5ccccn45)CC3)n2)CCN1C
32

Supply bioavailability value. Item: CN1CCN(c2ncc(F)c(N3CC(C(=O)NC(C)(C)c4cnc5ccccn45)C3)n2)CC1
33

***
Supply bioavailability value. Item: CN1CCCN(c2ncc(Cl)c(N3CC(C(=O)NC(C)(C)c4cnc5ccccn45)C3)n2)CC1
6

Supply bioavailability value. Item: CN1CCN(c2ncc(Cl)c(N3CC(C(=O)NC(C)(C)c4cnc5ccccn45)C3)n2)CC1
38

Supply bioavailability value. Item: CN1CCN(c2ncc(F)c(N3CC(C(=O)N(C)C(C)(C)c4cnc5ccccn45)C3)n2)CC1
73

Supply bioavailability value. Item: COCCN1CCN(c2ncc(Cl)c(N3CC(C(=O)NC(C)(C)c4cnc5ccccn45)C3)n2)CC1
34

* * *

# experiment.summary: Rat clearance and bioavailability (iv and oral dosing)
# Format: in vivo
# test.parameters: male, Sprague-Dawley, plasma, iv 1 mg/kg, cassette dosing of 4 compounds, read-out: Rat iv t1/2 (converted)
Reported half-life values for a set of compounds
State just the number; it will be interpreted in h.

Look over these answered cases.
Supply half-life value. Item: C[C@H]1CN(C)CCN1c1ncc(Cl)c(N2CC(C(=O)N(C)C(C)(C)c3cnc4ccccn34)C2)n1 [Example 107]
1.7

Supply half-life value. Item: CN1CCN(c2ncc(Cl)c(N3CC(C(=O)NC(C)(C)c4cnc5ccccn45)C3)n2)CC1 [Example 55]
3.1

Supply half-life value. Item: C[C@H]1CN(c2ncc(Cl)c(N3CCC(C(=O)NC(C)(C)c4cnc5ccccn45)CC3)n2)CCN1C [Example 101]
5.4

Supply half-life value. Item: CN1CCCN(c2ncc(Cl)c(N3CC(C(=O)NC(C)(C)c4cnc5ccccn45)C3)n2)CC1 [Example 57]
6.6

Supply half-life value. Item: COCCN1CCN(c2ncc(Cl)c(N3CC(C(=O)NC(C)(C)c4cnc5ccccn45)C3)n2)CC1 [Example 72]
2.7

***
Supply half-life value. Item: CN1CCN(c2ncc(F)c(N3CC(C(=O)NC(C)(C)c4cnc5ccccn45)C3)n2)CC1 [Example 54]
3.5

Supply half-life value. Item: CN1CCN(c2ncc(F)c(N3CC(C(=O)N(C)C(C)(C)c4cnc5ccccn45)C3)n2)CC1 [Example 78]
2.3

Supply half-life value. Item: CN1CCN(c2ncc(Cl)c(N3CC(C(=O)N(C)C(C)(C)c4cnc5ccccn45)C3)n2)CC1 [Example 73]
3.6

* * *

# target.desc: Plasmodium vivax (Pv) NMT (Plasmodium vivax (strain Salvador I), UniProt A5K1A2)
# Sequence (A5K1A2 1-410): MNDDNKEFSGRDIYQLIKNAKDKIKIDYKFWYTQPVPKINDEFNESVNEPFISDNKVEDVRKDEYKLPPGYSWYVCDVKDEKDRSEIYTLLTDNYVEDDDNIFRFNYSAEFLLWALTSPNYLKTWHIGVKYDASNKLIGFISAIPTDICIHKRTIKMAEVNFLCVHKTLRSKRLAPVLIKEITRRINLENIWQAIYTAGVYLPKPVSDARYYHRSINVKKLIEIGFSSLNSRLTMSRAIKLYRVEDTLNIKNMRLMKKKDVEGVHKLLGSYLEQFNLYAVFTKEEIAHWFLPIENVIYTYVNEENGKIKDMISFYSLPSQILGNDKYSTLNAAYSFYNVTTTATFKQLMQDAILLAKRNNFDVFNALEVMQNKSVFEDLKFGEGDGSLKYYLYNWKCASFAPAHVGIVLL
# experiment.summary: biochemical
measured.attribute: IC50
Could you kindly put the unit after your number?

Supply IC50 value. Item: O=C(NCc1cnc2ccccn12)C1CN(c2nc(N3CCCNCC3)ncc2Cl)C1
0.014 µM

Supply IC50 value. Item: COc1cnc(N2CCNCC2)nc1N1CC(C(=O)NC(C)(C)c2cnc3ccccn23)C1
0.0091 µM

Supply IC50 value. Item: C[C@@H]1CN(c2ncc(F)c(N3CC(C(=O)NC(C)(C)c4cnc5ccccn45)C3)n2)C[C@H](C)N1
0.032 µM

Shift focus to the following entry.
Supply IC50 value. Item: CN1CCN(c2ncc(F)c(N3CC(C)(C(=O)NC(C)(C)c4cnc5ccccn45)C3)n2)CC1
0.09 µM
